Biological target: Histone deacetylase 3 (Homo sapiens)
Sequence (O15379 whole entry, the tested form may be a part): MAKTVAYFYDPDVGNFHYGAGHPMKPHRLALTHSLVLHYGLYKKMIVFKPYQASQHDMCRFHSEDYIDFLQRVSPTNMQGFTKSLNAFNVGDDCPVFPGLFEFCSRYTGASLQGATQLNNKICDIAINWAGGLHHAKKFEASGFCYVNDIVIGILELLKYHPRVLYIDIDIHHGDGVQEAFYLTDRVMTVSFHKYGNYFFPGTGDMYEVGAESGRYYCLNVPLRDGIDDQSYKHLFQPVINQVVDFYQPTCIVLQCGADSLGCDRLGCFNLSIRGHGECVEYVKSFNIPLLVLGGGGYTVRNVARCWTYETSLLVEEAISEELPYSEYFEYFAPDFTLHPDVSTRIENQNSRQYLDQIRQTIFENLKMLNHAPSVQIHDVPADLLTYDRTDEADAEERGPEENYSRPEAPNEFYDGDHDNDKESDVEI
Experiment: Inhibition of recombinant His6-tagged GST-fused human HDAC3 expressed in baculovirus infected insect High5 cells using Ac-Lys-Tyr-Lys(epsilon-acetyl)-AMC as substrate after 24 hrs
Below: a set of entries, each annotated with reported pIC50.
Recall that pIC50 is obtained by taking minus log10 of the concentration measured in molar.

For orientation, consider the following solved cases.
1) O=C(CCCCCCC(=O)Nc1ccc2ccnc(Nc3ccc4ccccc4c3)c2c1)NO = 8.27
2) Cc1ccc(Nc2nccc3ccc(NCc4ccc(C(=O)NO)cc4)cc23)cc1 = 6.58
3) CC(C)CCn1ccc2ccc(NC(=O)CCCCCCC(=O)NO)cc2c1=O = 7.16
4) O=C(CCCCCCC(=O)Nc1ccc2ccnc(Nc3cccc(Cl)c3F)c2c1)NO = 7.67
5) CCCCn1ccc2ccc(NC(=O)CCCCCCC(=O)NO)cc2c1=O = 7.04

Tell me the measured pIC50 of "O=C(CCCCCCC(=O)Nc1ccc2ccnc(N3CCOCC3)c2c1)NO" , please.
7.39

I have this compound here, "CCN(CC)CCn1ccc2ccc(NC(=O)CCCCCCC(=O)NO)cc2c1=O" , and I need its recorded pIC50.
7.13

Given the entry "O=C(CCCCCCC(=O)Nc1ccc2ccnc(Nc3ccc(Br)cc3F)c2c1)NO" , report its measured pIC50.
7.78

Please report the recorded pIC50 for "O=C(COc1ccc(C(=O)NO)cc1)Nc1ccc2ccnc(Nc3ccc4ccccc4c3)c2c1" .
6.56

For "Cc1ccc(Nc2nccc3ccc(NC(=O)CCCCCCC(=O)NO)cc23)c(Br)c1" , what is its reported pIC50?
7.75

Can you look up the measured pIC50 of "CC(C)N1CCN(c2nccc3ccc(NC(=O)CCCCCCC(=O)NO)cc23)CC1" for me?
7.44

Any idea what pIC50 was measured for "COc1ccc(Cn2ccc3ccc(NC(=O)CCCCCCC(=O)NO)cc3c2=O)c(OC)c1" ?
6.97

Look up pIC50: "Cc1ccc(Nc2nccc3ccc(NC(=O)CCCCCCC(=O)NO)cc23)c(Cl)c1"
7.67

So what's the measured pIC50 for this one? "O=C(CCCCCCC(=O)Nc1ccc2ccnc(Nc3ccccc3F)c2c1)NO"
7.72

Give its pIC50 value. Item: "Cc1ccc(Nc2nccc3ccc(NCc4ccc(/C=C/C(=O)NO)cc4)cc23)cc1"
6.75

Quick one: pIC50 for "Cc1ccc(Nc2nccc3ccc(NC(=O)CCCCCCC(=O)NO)cc23)c(F)c1" ?
7.40

Fill in the blank: the reported pIC50 of "Cc1ccc(Nc2nccc3ccc(NCc4ccc(/C=C/C(=O)NO)cc4)cc23)c(Br)c1" is ____.
6.20

State the recorded pIC50 for this entry: "COCCN(CCOC)c1nccc2ccc(NC(=O)CCCCCCC(=O)NO)cc12"
6.72

State the recorded pIC50 for this entry: "Cc1ccc(Nc2nccc3ccc(NC(=O)CCCCCCC(=O)NO)cc23)cc1"
8.40

Quick check: pIC50 of "COCCCNc1nccc2ccc(NC(=O)CCCCCCC(=O)NO)cc12" ?
7.86

Would you mind telling me what pIC50 value was observed for "Cc1ccc(Nc2nccc3ccc(NCc4ccc(/C=C/C(=O)NO)cc4)cc23)c(Cl)c1" ?
6.32

---

Target: UniProtKB Q13547
Sequence (Q13547 whole entry, the tested form may be a part): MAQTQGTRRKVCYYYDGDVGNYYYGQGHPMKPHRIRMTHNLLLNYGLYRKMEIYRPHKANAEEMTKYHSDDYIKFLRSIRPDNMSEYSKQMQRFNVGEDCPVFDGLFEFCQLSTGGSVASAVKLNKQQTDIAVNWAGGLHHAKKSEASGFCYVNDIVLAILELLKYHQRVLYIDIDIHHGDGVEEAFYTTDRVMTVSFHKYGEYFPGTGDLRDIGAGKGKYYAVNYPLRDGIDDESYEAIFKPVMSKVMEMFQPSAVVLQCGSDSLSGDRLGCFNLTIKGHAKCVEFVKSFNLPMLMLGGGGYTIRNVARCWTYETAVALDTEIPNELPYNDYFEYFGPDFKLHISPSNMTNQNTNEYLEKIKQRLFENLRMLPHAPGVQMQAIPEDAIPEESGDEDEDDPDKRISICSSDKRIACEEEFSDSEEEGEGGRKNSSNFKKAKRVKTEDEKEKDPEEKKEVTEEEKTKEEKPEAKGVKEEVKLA
Assay: Inhibition of recombinant His6-tagged GST-fused human HDAC1 expressed in baculovirus infected insect High5 cells using Ac-Lys-Tyr-Lys(epsilon-acetyl)-AMC as substrate after 24 hrs
observable: IC50 (nM)
Quick note: give the figure in nM, leave out the unit.

1) COCCN(CCOC)c1nccc2ccc(NC(=O)CCCCCCC(=O)NO)cc12 = 263
2) CCN(CC)CCn1ccc2ccc(NC(=O)CCCCCCC(=O)NO)cc2c1=O = 69
3) Cc1ccc(Nc2nccc3ccc(NC(=O)CCCCCCC(=O)NO)cc23)c(Cl)c1 = 19.5
4) Cc1ccc(Nc2nccc3ccc(NCc4ccc(/C=C/C(=O)NO)cc4)cc23)c(Br)c1 = 439
5) O=C(CCCCCCC(=O)Nc1ccc2ccnc(Nc3ccc4ccccc4c3)c2c1)NO = 5.75
6) O=C(CCCCCCC(=O)Nc1ccc2ccnc(N3CCOCC3)c2c1)NO = 45.9

Return IC50 measured with UniProtKB Q13547 given this molecule: "O=C(COc1ccc(C(=O)NO)cc1)Nc1ccc2ccnc(Nc3ccc4ccccc4c3)c2c1"
272

# query: IC50 | item "CC(C)CCn1ccc2ccc(NC(=O)CCCCCCC(=O)NO)cc2c1=O" | system: UniProtKB Q13547
66

So what IC50 did "Cc1ccc(Nc2nccc3ccc(NCc4ccc(/C=C/C(=O)NO)cc4)cc23)c(Cl)c1" get with UniProtKB Q13547?
571

What value of IC50 on UniProtKB Q13547 does "Cc1ccc(Nc2nccc3ccc(NC(=O)CCCCCCC(=O)NO)cc23)c(Br)c1" have?
15.4

---

Molecular target: hERG (KCNH2) (Homo sapiens, UniProt Q12809)
Sequence (Q12809 whole entry): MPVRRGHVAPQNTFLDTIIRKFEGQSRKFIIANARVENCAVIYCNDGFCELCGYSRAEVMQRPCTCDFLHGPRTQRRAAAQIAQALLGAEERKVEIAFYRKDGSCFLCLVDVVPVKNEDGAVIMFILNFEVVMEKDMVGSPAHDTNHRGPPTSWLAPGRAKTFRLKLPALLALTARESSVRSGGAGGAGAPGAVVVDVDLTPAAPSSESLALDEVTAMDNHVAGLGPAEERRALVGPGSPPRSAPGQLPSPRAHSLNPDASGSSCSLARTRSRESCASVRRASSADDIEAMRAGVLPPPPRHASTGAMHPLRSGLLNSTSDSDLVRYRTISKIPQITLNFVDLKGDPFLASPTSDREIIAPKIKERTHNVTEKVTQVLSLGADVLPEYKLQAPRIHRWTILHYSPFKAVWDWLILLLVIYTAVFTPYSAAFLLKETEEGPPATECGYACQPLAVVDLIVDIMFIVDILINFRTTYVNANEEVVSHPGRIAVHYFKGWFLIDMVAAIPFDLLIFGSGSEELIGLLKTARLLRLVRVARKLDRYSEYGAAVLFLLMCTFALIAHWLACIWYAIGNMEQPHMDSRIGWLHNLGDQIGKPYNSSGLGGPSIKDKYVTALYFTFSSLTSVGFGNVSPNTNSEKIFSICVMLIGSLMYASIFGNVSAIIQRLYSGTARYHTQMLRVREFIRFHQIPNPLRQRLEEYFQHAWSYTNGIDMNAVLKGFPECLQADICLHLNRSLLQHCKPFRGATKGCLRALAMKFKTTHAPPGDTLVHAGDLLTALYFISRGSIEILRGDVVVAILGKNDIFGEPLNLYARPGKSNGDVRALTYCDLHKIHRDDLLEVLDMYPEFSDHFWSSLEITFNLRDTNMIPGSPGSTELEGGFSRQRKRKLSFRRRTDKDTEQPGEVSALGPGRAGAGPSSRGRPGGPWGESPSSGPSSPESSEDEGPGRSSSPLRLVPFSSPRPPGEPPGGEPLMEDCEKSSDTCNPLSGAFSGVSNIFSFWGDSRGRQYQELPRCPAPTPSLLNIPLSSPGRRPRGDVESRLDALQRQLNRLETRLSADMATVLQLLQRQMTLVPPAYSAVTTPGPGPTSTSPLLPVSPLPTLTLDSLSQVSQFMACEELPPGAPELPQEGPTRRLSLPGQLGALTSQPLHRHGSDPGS
Experiment: Inhibition of human ERG overexpressed in CHO cells at 3 uM by Qpatch method relative to control
Type: cell-based
Conditions: CHO cells overexpressing human ERG
observable: inhibition at 3 µM (%)
The reply should contain only the number, in %.

Given the compound COc1cc(N)c(Cl)cc1C(=O)NC1CCN(CCCOc2ccc(F)cc2)CC1OC (stereo unspecified) [CISAPRIDE] , what is its reported inhibition at 3 µM?
98.7

---

Target: hERG (KCNH2) (Homo sapiens, UniProt Q12809)
Experiment: Inhibition of human ERG overexpressed in CHO cells at 40 uM by Qpatch method relative to control
Type: cell-based
Settings: CHO cells overexpressing human ERG
Recorded inhibition at 40 µM values for a group of compounds are listed next.
# number only, unit % dropped from output

1. O=C(CCCCCCC(=O)Nc1ccc2ccnc(Nc3ccc4ccccc4c3)c2c1)NO = 17.5

For the next question, use this compound.
What value of inhibition at 40 µM on hERG (KCNH2) (Homo sapiens, UniProt Q12809) does "O=C(CCCCCCC(=O)Nc1ccc2ccnc(Nc3ccc(Br)cc3F)c2c1)NO" have?
43.7

---

Examples of molecules with documented pIC50 follow.
Target: UniProtKB Q9UBN7
Sequence (Q9UBN7 whole entry, the tested form may be a part): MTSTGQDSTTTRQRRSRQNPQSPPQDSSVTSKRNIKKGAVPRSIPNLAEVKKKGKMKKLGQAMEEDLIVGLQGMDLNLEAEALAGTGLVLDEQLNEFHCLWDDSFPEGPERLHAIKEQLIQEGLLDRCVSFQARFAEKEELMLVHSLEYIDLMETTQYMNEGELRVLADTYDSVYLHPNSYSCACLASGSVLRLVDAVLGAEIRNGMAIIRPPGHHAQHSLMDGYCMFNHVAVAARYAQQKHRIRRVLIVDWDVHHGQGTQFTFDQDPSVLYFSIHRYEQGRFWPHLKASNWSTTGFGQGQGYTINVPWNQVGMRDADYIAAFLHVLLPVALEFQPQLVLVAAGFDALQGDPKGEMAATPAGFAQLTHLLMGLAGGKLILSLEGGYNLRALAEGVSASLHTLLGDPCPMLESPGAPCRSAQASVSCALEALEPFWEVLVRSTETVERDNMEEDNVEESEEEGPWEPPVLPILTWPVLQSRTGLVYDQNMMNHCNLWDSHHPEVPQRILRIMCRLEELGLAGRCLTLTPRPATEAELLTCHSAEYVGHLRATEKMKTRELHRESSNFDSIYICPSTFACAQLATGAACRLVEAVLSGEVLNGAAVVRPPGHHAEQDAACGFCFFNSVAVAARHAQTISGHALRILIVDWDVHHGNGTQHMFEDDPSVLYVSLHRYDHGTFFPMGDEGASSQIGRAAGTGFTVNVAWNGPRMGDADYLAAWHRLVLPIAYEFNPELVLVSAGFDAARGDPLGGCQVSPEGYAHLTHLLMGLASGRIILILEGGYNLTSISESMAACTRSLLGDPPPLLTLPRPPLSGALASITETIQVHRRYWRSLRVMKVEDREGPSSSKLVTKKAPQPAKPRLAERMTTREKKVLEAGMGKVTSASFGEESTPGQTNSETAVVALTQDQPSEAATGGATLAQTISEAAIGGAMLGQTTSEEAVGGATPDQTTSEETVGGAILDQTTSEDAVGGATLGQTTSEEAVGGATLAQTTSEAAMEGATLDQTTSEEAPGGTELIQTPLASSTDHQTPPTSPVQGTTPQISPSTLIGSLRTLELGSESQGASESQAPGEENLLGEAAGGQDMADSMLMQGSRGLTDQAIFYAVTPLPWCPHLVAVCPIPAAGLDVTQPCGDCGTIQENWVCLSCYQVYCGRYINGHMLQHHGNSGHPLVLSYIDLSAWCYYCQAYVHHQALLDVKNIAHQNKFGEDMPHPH
Assay: Inhibition of recombinant His6-tagged GST-fused human HDAC6 expressed in baculovirus infected insect High5 cells using Boc-Lys-(epsilon-acetyl)-AMC as substrate after 3 hrs
On this scale, pIC50 is minus log10 of a concentration expressed in M (mol/L).

Below are worked cases with known answers.
1) COc1ccc(Cn2ccc3ccc(NC(=O)CCCCCCC(=O)NO)cc3c2=O)c(OC)c1 = 7.00
2) O=C(CCCCCCC(=O)Nc1ccc2ccnc(Nc3cccc(Cl)c3F)c2c1)NO = 8.10
3) CC(C)N1CCN(c2nccc3ccc(NC(=O)CCCCCCC(=O)NO)cc23)CC1 = 7.60
4) CC(C)CCn1ccc2ccc(NC(=O)CCCCCCC(=O)NO)cc2c1=O = 7.27

API: value(readout=pIC50, system=UniProtKB Q9UBN7) for record "O=C(COc1ccc(C(=O)NO)cc1)Nc1ccc2ccnc(Nc3ccc4ccccc4c3)c2c1"
6.26

Which measured pIC50 belongs to "CCN(CC)CCn1ccc2ccc(NC(=O)CCCCCCC(=O)NO)cc2c1=O" , tested on UniProtKB Q9UBN7?
7.41

pIC50 of "O=C(CCCCCCC(=O)Nc1ccc2ccnc(Nc3ccc4ccccc4c3)c2c1)NO" on UniProtKB Q9UBN7?
8.29

Hello, I am looking for reported pIC50 with UniProtKB Q9UBN7 for "O=C(CCCCCCC(=O)Nc1ccc2ccnc(N3CCOCC3)c2c1)NO" . Could you help?
7.53

Record "O=C(CCCCCCC(=O)Nc1ccc2ccnc(Nc3ccccc3F)c2c1)NO" : what is its pIC50 with UniProtKB Q9UBN7?
7.96

pIC50 of "Cc1ccc(Nc2nccc3ccc(NC(=O)CCCCCCC(=O)NO)cc23)c(Br)c1" on UniProtKB Q9UBN7?
8.20

Requested read-out pIC50, target or system UniProtKB Q9UBN7, entry "Cc1ccc(Nc2nccc3ccc(NCc4ccc(/C=C/C(=O)NO)cc4)cc23)c(Cl)c1"
6.54

Notebook entry, UniProtKB Q9UBN7 assay: pIC50 of "Cc1ccc(Nc2nccc3ccc(NCc4ccc(/C=C/C(=O)NO)cc4)cc23)cc1" = ?
7.23

Short answer please: pIC50, UniProtKB Q9UBN7, entry "Cc1ccc(Nc2nccc3ccc(NC(=O)CCCCCCC(=O)NO)cc23)c(F)c1"
7.39

Hi! What's the reported pIC50 for "Cc1ccc(Nc2nccc3ccc(NCc4ccc(/C=C/C(=O)NO)cc4)cc23)c(Br)c1" on UniProtKB Q9UBN7?
6.52

Query for UniProtKB Q9UBN7: what pIC50 does the record show for "O=C(CCCCCCC(=O)Nc1ccc2ccnc(Nc3ccc(Br)cc3F)c2c1)NO" ?
8.17

Provide value of pIC50 for this record tested with UniProtKB Q9UBN7: "Cc1ccc(Nc2nccc3ccc(NC(=O)CCCCCCC(=O)NO)cc23)cc1"
8.42

Lookup: pIC50 / UniProtKB Q9UBN7 / "COCCN(CCOC)c1nccc2ccc(NC(=O)CCCCCCC(=O)NO)cc12"
6.83

UniProtKB Q9UBN7 / pIC50 / "Cc1ccc(Nc2nccc3ccc(NC(=O)CCCCCCC(=O)NO)cc23)c(Cl)c1" : value?
7.52

Could you share what pIC50 was measured for "Cc1ccc(Nc2nccc3ccc(NCc4ccc(C(=O)NO)cc4)cc23)cc1" , tested on UniProtKB Q9UBN7?
6.45

Find the measured pIC50: item "CCCCn1ccc2ccc(NC(=O)CCCCCCC(=O)NO)cc2c1=O" , target or system UniProtKB Q9UBN7.
7.49

Return pIC50 measured with UniProtKB Q9UBN7 given this molecule: "COCCCNc1nccc2ccc(NC(=O)CCCCCCC(=O)NO)cc12"
7.87
